- Test system: Pseudomonas aeruginosa
- assay.comment: Antibacterial activity against Pseudomonas aeruginosa PA262 assessed as inhibition of visible bacterial growth by CLSI based broth-microdilution method
- Type: functional
measurement.label: MIC (µg/mL)
Numbers only, in µg/mL.

>>> print(df.to_string())
                                smiles_repr  assay_value
0  CN(C)[C@@H]1C(O)=C(C(N)=O)C(=O)[C@@]2(O)C(O)=C3C(=O)c4c(O)c(NC(=O)CN5CCCC5)cc(F)c4C[C@H]3C[C@@H]12           64

Asked: Under Pseudomonas aeruginosa, report MIC for CN(C)c1cc(NC(=O)CNC(C)(C)C)c(O)c2c1C[C@H]1C[C@H]3[C@H](N(C)C)C(O)=C(C(N)=O)C(=O)[C@@]3(O)C(O)=C1C2=O
Given back: 64
